test: Protein binding in dog plasma; type: ADME, cell-free, Canis lupus familiaris; details: read-out: PPB (converted)
assayEndpoint: fraction unbound

>>> print(df.to_string())
                          structureassmiles  numericresult
0  C[C@@](C[C@H]1CN(c2ccc(C#CC3CC3)cc2)C(=O)O1)(C(=O)NO)S(C)(=O)=O           0.14

----------
assay: Protein binding in human plasma; format: ADME, cell-free; conditions: read-out: PPB (converted)
assayEndpoint: fraction unbound

>>> df
                          structureassmiles     assayendpoint  numericresult
0  C[C@@](C[C@H]1CN(c2ccc(C#CC3CC3)cc2)C(=O)O1)(C(=O)NO)S(C)(=O)=O  fraction unbound           0.14
